Hi there, I'd appreciate the recorded viability for every entry that follows.
- Test method notes: HUVEC growth inhibition – cell-based, human, primary screen (AID 575);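 also: 100% = median of untreated cell wells with 0.1% DMSO on each plate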
- Assay setup: HUVEC proliferation, CellTiter-Glo luminescence, 72 h; at 10 µM; stronger effect = lower value
One number for each entry, in %.

Completed entries (count: 2):
O=C(CCc1nc2ccccc2s1)OCC(=O)N1CCN(C(=O)c2ccco2)CC1 = 91.1
COc1ccccc1-n1c(-c2cccnc2)n[nH]c1=S = 110

Provide each entry's viability from the list below.
1. CN1C(=O)CCC1(O)c1ccccc1 (stereo unspecified)
2. COC(=O)c1cc(NS(=O)(=O)c2ccc3c(c2)CCC(=O)N3)cc(C(=O)OC)c1
3. CCOC(=O)N1CCN(c2c(NCCN(C)Cc3ccccc3)c(=O)c2=O)CC1
4. CN(C)C(=O)CN(c1ccc(F)c(Cl)c1)S(C)(=O)=O

116
94.2
84.3
92.7

---

- Test method notes: reversal of MRP1-mediated doxorubicin resistance, pilot screen, H69AR cells, doxorubicin co-treatment (AID 601)
- Assay setup: H69AR cells + 2 uM doxorubicin, CellTiter-Glo, 72 h; measured here: viability with 2 uM doxorubicin; at 10 µM; stronger effect = lower value
Param label: returns true when viability < 90%, returns false otherwise, including exact equality.

CCOC(=O)c1cnn(-c2cc(C)nc3c(-c4ccccc4)c(C)nn23)c1N = true
Cn1c(=O)c2c(nc(SCCCC#N)n2Cc2ccccc2F)n(C)c1=O = true
CCn1ncc(Cl)c1C(=O)Nc1ccncc1 = true
COC(=O)C(NC(C)=O)(Nc1nc2ccc(S(C)(=O)=O)cc2s1)C(F)(F)F (stereo not given) = false
CCOC(=O)Cn1c(=N)n(CCOc2cccc(C)c2)c2ccccc21 = true
CC(C)CNC(=O)c1c(N)n(/N=C/c2ccccn2)c2nc3ccccc3nc12 = true
NC(=O)c1c(NC(=O)CN2CCCC2)sc2c1CCCC2 = true
C/C(N)=C(/C#N)C(=O)CSc1nnc(Nc2c(C)cccc2C)s1 = true
CC1CCCN(C(=O)c2cc(F)c(F)cc2Cl)C1 (stereo not given) = false
COC(=O)c1cc(Br)c(=O)n(CCN2CCOCC2)c1 = true

Consider the molecule `O=S(=O)(c1ccc2nc(Cc3cccc(C(F)(F)F)c3)[nH]c2c1)N1CCOCC1` . Is its viability strictly less than 90%? true

Consider the molecule `CCc1nnc(NC(=O)CSc2nnc(CSc3nc(C)cc(C)n3)n2CC)s1` . Is its viability strictly less than 90%? true

Consider the molecule `O=C(c1ccco1)N1CCN(S(=O)(=O)c2ccc(C3CCCCC3)cc2)CC1` . Is its viability strictly less than 90%? true

Consider the molecule `Cc1cc(N2CCN(c3ccccn3)CC2)n2nc(C)nc2n1` . Is its viability strictly less than 90%? false

Consider the molecule Cc1ccc(S(=O)(=O)NCCCCC(NC(=O)OC(C)(C)C)C(=O)O)cc1 (stereo not given) (tested in a mixture with another compound) . Is its viability strictly less than 90%? false

---

- Test method notes: growth inhibitors of H69AR lung tumor, primary screen, human, duplicate replicates (AID 580);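 also: 100% = mean luminescence of untreated wells and 0% = no signal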
- Assay setup: H69AR lung tumor cells viability, ATP luminescence, 72 h; at 10 µM; stronger effect = lower value
The source made the active and inactive calls.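 The calls were made as follows: active = viability at or under a set limit in both replicates, limit being median viability minus 3 SD (cut at about 48% in these data, passing the limit was not always enough); inconclusive = at or under the limit in just one replicate; inactive = at or above the limit in both replicates.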
Reported property: viability

Completed entries (count: 4):
COCCNC(=O)CN(C)S(=O)(=O)c1ccc2c(c1)OCCO2 = 100% (inactive)
CCOc1ccc(C2C(C#N)=C(N)Oc3cc(C)n(CCN(C)C)c(=O)c32)cc1OCC (stereo not given) = 101% (inactive)
Cc1c(NC(=O)C(C)OC(=O)C(NC(=O)c2ccco2)C(C)C)c(=O)n(-c2ccccc2)n1C (stereo not given) = 91.5% (inactive)
COc1ccc(C2/C(=C(/O)c3ccccc3)C(=O)C(=O)N2C)cc1 (stereo not given) = 101% (inactive)

# viability of `CCNC(=O)Cn1cnc2c1c(=O)n(C)c(=O)n2C` = 96.2% (inactive)

---

- Test method notes: growth inhibitors of H69AR lung tumor, primary screen, human, duplicate replicates (AID 580);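 also: 100% = mean luminescence of untreated wells and 0% = no signal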
- Assay setup: H69AR lung tumor cells viability, ATP luminescence, 72 h; at 10 µM; stronger effect = lower value
Hi there, I'd appreciate the recorded viability for every entry that follows.
Answers are plain numbers, in %.

Completed entries (count: 6):
CCOCCn1cnc2sc(C(=O)NCC(=O)OCC)c(C)c2c1=O = 86.8
Cc1ncc(CSc2nc3ccccc3[nH]2)c(N)n1 = 104
Cc1nnc(SCC(=O)N2CCC(C(=O)Nc3nccs3)CC2)n1Cc1ccccc1 = 91.5
O=C(NCC1COCCO1)C1CCN(S(=O)(=O)c2ccccc2)CC1 (stereo not given) = 109
COc1ccc(-c2noc(-c3cc(Cl)ccc3Cl)n2)cc1OC = 107
CSc1ccc(-c2nc(CSCC(=O)N3CCOCC3)c(C)o2)cc1 = 103

Provide each entry's viability from the list below.
1. Cc1cccc(N2CCN(C(=O)CCn3c(=S)[nH]c4cc5c(cc4c3=O)OCO5)CC2C)c1 (stereo not given)
2. CCOC(=O)c1cc2sccc2n1Cc1ccccc1
3. CCC(=O)NC1(C(F)(F)F)C(=O)NC(C)=C1C#N (stereo not given)

1. 50.8
2. 96
3. 97.9

---

- Test method notes: reversal of MRP1-mediated doxorubicin resistance, pilot screen, H69AR cells, doxorubicin co-treatment (AID 601)
- Assay setup: H69AR cells, CellTiter-Glo, 72 h; compound alone cytotoxicity; at 10 µM
Hi there, I'd appreciate the recorded viability for every entry that follows.
Numbers only, in %.

Completed entries (count: 5):
c1ccc(CNc2c3c(nc4ncnn24)CCCC3)nc1 = 85.2
Cc1cc(Cl)c(S(=O)(=O)NC2CCCCC2)cc1OCC(=O)Nc1nncs1 = 90.1
O=C(c1cccc(C(=O)N2CCN(c3ccccc3)CC2)c1)N1CCN(c2ccccc2)CC1 = 90.7
O=C(CSc1nc(O)c(Cc2ccccc2)c(=O)[nH]1)Nc1ccccc1 = 86.2
COCCN1Cc2cccc(C(=O)Nc3cccnc3)c2C1=O = 93.5

Provide each entry's viability from the list below.
1. O=C(CN1C(=O)C2CC=C(Cl)CC2C1=O)Nc1ccc(C(=O)O)cc1 (stereo not given)
2. CC1(C)CC(=O)c2cc(OCC(=O)NCCCN3CCN(c4ccccc4F)CC3)ccc2O1

1. 94.7
2. 80

Provide each entry's viability from the list below.
1. COC(=O)c1ccccc1NC(=O)CSc1nnc(-c2ccncc2)o1
2. Cc1ccc(Br)cc1S(=O)(=O)N1CCN(c2ccccc2)CC1

101
79.4

# viability of O=C(CCC(=O)N(c1cccc(F)c1)C(C(=O)NC1CCCC1)c1ccncc1)Nc1cccnc1 (stereo not given) = 91.7

---

- Test method notes: reducers of endogenous Her2 protein level, primary screen, SKBR3 breast tumor cells, AlphaScreen, ATP viability (AID 461);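 also: percent of carrier control wells set as 100% viability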
- Assay setup: 18-24 h, measured here: SKBR3 viability, ATP luminescence, at 10 µM
Hi there, I'd appreciate the recorded viability for every entry that follows.
One number for each entry, in %.

Completed entries (count: 10):
CCCN1CCC(NC(=O)Nc2ccc(OC)c(OC)c2)CC1 = 124
CCC(C)n1[nH]c(=O)c2c(C)cc(C)nc21 (stereo not given) = 97.5
COc1ccc2c(c1)CCc1c(C(=O)NCc3cccnc3)noc1-2 = 97.5
Cc1nc2ccccn2c1/C(O)=C1\C(=O)C(=O)N(CCN2CCOCC2)C1c1cccs1 (stereo not given) = 94.5
O=C(CSC1=NC(=O)C(Cc2ccccc2)C(=O)N1)NC1CCCCC1 (stereo not given) = 100
CCc1cc2c(=O)n(C(C)C(=O)OC3CCCCC3)cnc2s1 (stereo not given) = 102
CCNC(=O)CC(=O)Nc1ccccc1C(=O)O = 104
CCc1nnc(NC(=O)C2CCN(c3nccc(C)n3)CC2)s1 = 112
CN(C(=O)c1ccccn1)c1nnc(-c2ccncc2)s1 = 118
CN1CCN(CCCNC(=O)C2CC(=O)N(C3CCCCC3)C2)CC1 (stereo not given) = 106

Provide each entry's viability from the list below.
1. Cc1cccc(-c2nnn(CC/C(N)=N/O)n2)c1
2. CN(C)CCCn1c(N)c(C#N)c2nc(C#N)c(C#N)nc21

1: 85; 2: 179

Provide each entry's viability from the list below.
1. CCCN1C=CC(=C2C(=O)c3ccccc3C2=O)C=C1
2. CCN(CC)c1ncc(C)c(=O)[nH]1
3. COc1ccc(C)cc1NC(=O)c1nc2nc(C)cc(C)n2n1
4. NC(=O)c1cccc(S(=O)(=O)N2CCCCC2)c1
5. COc1cc2c(C)nc(C)c(C#N)c2cc1OC
6. COc1ccc(-c2nnc(SCC(=O)N3CCCCC3)o2)cc1OC
7. N#CCCN(C(=O)Nc1ccc(Cl)cc1)c1ccccc1
8. C=CCn1cnc2c(NCc3ccccc3)ncnc21

[88, 103, 86, 99, 111, 104, 94, 85.5]

Provide each entry's viability from the list below.
1. CN1C(=O)CC(N2CCC(C(N)=O)(N3CCCCC3)CC2)C1=O (stereo not given)
2. CCOc1ccccc1C(=O)NCCC(=O)O
3. COc1ccc(C2=NO[C@@H]3C(=O)N(c4cccc(C)c4C)C(=O)[C@H]23)cc1OC

[104, 95, 104]

Provide each entry's viability from the list below.
1. Cc1csc(SCc2nc3sc4c(c3c(=O)[nH]2)CCC4)n1
2. Brc1ccc(-c2cn3cccnc3n2)cc1

[116, 130]
